Source of measurements: patent US20250353873A1

Test system: human APOE RNA
protocolSummary: Activity in APOE C57BL/6NTac-Apoeem7250 knock-in mice, single ICV bolus, 16 weeks (Example 12)
Assay type: in vivo
reportedConditions: cortex; single ICV bolus 300 μg; 16 weeks post treatment; normalized to mouse Ppia
Strand notation (5' to 3'): a small letter for the sugar, then the base; units joined by * are phosphorothioate-linked, units joined directly phosphodiester-linked; [ ] holds rarer units or linkages, { } end groups; capitals alone tell only the bases. [ms] = mesyl phosphoramidate linkage; e = 2'-O-(2-methoxyethyl) (MOE); k = constrained ethyl (cEt); [5mC] = 5-methylcytosine; d = 2'-deoxy (DNA)
Binary call on APOE RNA (% control) Cortex: MET from 90 % control upward, NOT MET beneath that.

>  <substance>
1693077: 6-10-4 MOE gapmer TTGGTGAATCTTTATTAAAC, linkages sosssszzszssszssoss (eT*eTeG*eG*eT*eG*dA[ms]dA[ms]dT*d[5mC][ms]dT*dT*dT*dA[ms]dT*dT*eAeA*eA*e[5mC]) [compound 1693077]

>  <classification>
MET

$$$$
>  <substance>
1681003: 5-10-5 MOE gapmer GGTGAATCTTTATTAAACTA, linkages soooszsssszzszsooss (antisense eG*eGeTeGeA*dA[ms]dT*d[5mC]*dT*dT*dT[ms]dA[ms]dT*dT[ms]dA*eAeAe[5mC]*eT*eA) [compound 1681003]

>  <classification>
MET

$$$$
>  <substance>
1778154: modified oligonucleotide complementary to human APOE RNA (e[5mC]*eT*eTeGeGeT*dG[ms]dA[ms]dA*dT*d[5mC]*dT*dT*dT*dA*dT*kTkAeA*eA; antisense) [compound 1778154]

>  <classification>
NOT MET

$$$$
>  <substance>
1693079: 6-10-4 MOE gapmer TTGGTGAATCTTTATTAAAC, linkages sssosszzszssszssoss (eT*eT*eG*eGeT*eG*dA[ms]dA[ms]dT*d[5mC][ms]dT*dT*dT*dA[ms]dT*dT*eAeA*eA*e[5mC]) [compound 1693079]

>  <classification>
MET

$$$$
>  <substance>
1693078: 6-10-4 MOE gapmer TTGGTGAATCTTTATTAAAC, linkages ssossszzszssszssoss (eT*eT*eGeG*eT*eG*dA[ms]dA[ms]dT*d[5mC][ms]dT*dT*dT*dA[ms]dT*dT*eAeA*eA*e[5mC]) [compound 1693078]

>  <classification>
MET

$$$$

Task: Hello, I need to know if 1693057: 5-10-5 MOE gapmer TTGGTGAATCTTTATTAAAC, linkages ssssszzzssssszsosss (antisense eT*eT*eG*eG*eT*dG[ms]dA[ms]dA[ms]dT*d[5mC]*dT*dT*dT*dA[ms]dT*eTeA*eA*eA*e[5mC]) [compound 1693057] has measured APOE RNA (% control) Cortex not below 90 % control. Thanks!
Result: MET

Task: Hello, I need to know if 1785599: modified oligonucleotide complementary to human APOE RNA (k[5mC]*kT*kT*dG[ms]dG[ms]dT[ms]dG[ms]dA[ms]dA[ms]dT[ms]d[5mC]*dT*dT*dT*dA*dT*kT*kA*dA[ms]kA; antisense) [compound 1785599] has measured APOE RNA (% control) Cortex not below 90 % control. Thanks!
Result: NOT MET

Task: Hello, I need to know if 1778115: modified oligonucleotide complementary to human APOE RNA (eA*e[5mC]eTeTkGkG*dT*dG[ms]dA[ms]dA*dT*d[5mC]*dT*dT*dT*dA[ms]eTeT*eA*eA; antisense) [compound 1778115] has measured APOE RNA (% control) Cortex not below 90 % control. Thanks!
Result: NOT MET

Task: Hello, I need to know if 1693082: 6-10-4 MOE gapmer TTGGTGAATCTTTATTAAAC, linkages ssssoozzszssszsssss (eT*eT*eG*eG*eTeGdA[ms]dA[ms]dT*d[5mC][ms]dT*dT*dT*dA[ms]dT*dT*eA*eA*eA*e[5mC]) [compound 1693082] has measured APOE RNA (% control) Cortex not below 90 % control. Thanks!
Result: NOT MET

Task: Hello, I need to know if 1736533 (e[5mC]*eT*eT*eG*eGeT*dG[ms]dA[ms]dA[ms]dT*d[5mC]*dT*dT*dT*dA[ms]dT*kT*eA*eA*eA; antisense) [Compound 1736533] has measured APOE RNA (% control) Cortex not below 90 % control. Thanks!
Result: NOT MET

Task: Hello, I need to know if 1693044: 5-10-5 MOE gapmer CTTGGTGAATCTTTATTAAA, linkages sssoszzzzssssssssss (antisense e[5mC]*eT*eT*eGeG*dT[ms]dG[ms]dA[ms]dA[ms]dT*d[5mC]*dT*dT*dT*dA*eT*eT*eA*eA*eA) [compound 1693044] has measured APOE RNA (% control) Cortex not below 90 % control. Thanks!
Result: MET

Task: Hello, I need to know if 1785598: modified oligonucleotide complementary to human APOE RNA (k[5mC]*kT*kT*dG[ms]dG[ms]dT[ms]dG[ms]dA[ms]dA[ms]dT*d[5mC]*dT*dT*dT*dA*dT[ms]kT*kA*dA[ms]kA; antisense) [compound 1785598] has measured APOE RNA (% control) Cortex not below 90 % control. Thanks!
Result: NOT MET

* * *

Test system: human APOE RNA
protocolSummary: Potency (dose response, ED50) in APOE C57BL/6NTac-Apoeem7250 knock-in mice, 8 weeks (Example 15)
Type: in vivo
reportedConditions: cortex, ICV dose 700 μg
Strand notation (5' to 3'): a small letter for the sugar, then the base; units joined by * are phosphorothioate-linked, units joined directly phosphodiester-linked; [ ] holds rarer units or linkages, { } end groups; capitals alone tell only the bases. [ms] = mesyl phosphoramidate linkage; e = 2'-O-(2-methoxyethyl) (MOE); k = constrained ethyl (cEt); [5mC] = 5-methylcytosine; d = 2'-deoxy (DNA)
readoutLabel: APOE RNA (% control) Cortex
Give just the numeric value; % control need not be written.

# annotated cases, reported APOE RNA (% control) Cortex shown
>  <substance>
^mCksTksTksGdzGdzTdzGdzAdzAdzTds^mCdsTdsTdsTdsAdsTdsTksAksAdzAk (antisense k[5mC]*kT*kT*dG[ms]dG[ms]dT[ms]dG[ms]dA[ms]dA[ms]dT*d[5mC]*dT*dT*dT*dA*dT*kT*kA*dA[ms]kA) [Compound No. 1785602]

>  <APOE RNA (% control) Cortex>
21

$$$$
>  <substance>
Aes^mCeoTeoTesGesGksTdsGdzAdzAdzTds^mCdsTdsTdsTdsAdzTksTksAesAe (eA*e[5mC]eTeT*eG*kG*dT*dG[ms]dA[ms]dA[ms]dT*d[5mC]*dT*dT*dT*dA[ms]kT*kT*eA*eA) [Compound No. 1757576]

>  <APOE RNA (% control) Cortex>
18

$$$$

Could you now consider this next substance?
Task: Return value of APOE RNA (% control) Cortex for input Aks^mCeoTeoTesGesGksTdsGdzAdzAdzTds^mCdsTdsTdsTdsAdzTksTksAesAe (kA*e[5mC]eTeT*eG*kG*dT*dG[ms]dA[ms]dA[ms]dT*d[5mC]*dT*dT*dT*dA[ms]kT*kT*eA*eA) [Compound No. 1809635] , no commentary.
Result: 16

* * *

Test system: human APOE RNA
protocolSummary: Activity in APOE C57BL/6NTac-Apoeem7250 knock-in mice, single ICV bolus, 8 weeks (Example 11)
Type: in vivo
reportedConditions: spinal cord; single ICV bolus 300 μg; 8 weeks post treatment; normalized to mouse Ppia
Strand notation (5' to 3'): a small letter for the sugar, then the base; units joined by * are phosphorothioate-linked, units joined directly phosphodiester-linked; [ ] holds rarer units or linkages, { } end groups; capitals alone tell only the bases. [ms] = mesyl phosphoramidate linkage; e = 2'-O-(2-methoxyethyl) (MOE); k = constrained ethyl (cEt); [5mC] = 5-methylcytosine; d = 2'-deoxy (DNA)
readoutLabel: APOE RNA (% control) Spinal Cord
Give just the numeric value; % control need not be written.

# annotated cases, reported APOE RNA (% control) Spinal Cord shown
>  <substance>
1785600 (k[5mC]*kT*kT*dG[ms]dG[ms]dT[ms]dG*dA*dA*dT*d[5mC]*dT[ms]dT[ms]dT[ms]dA*dT*kT*kA*dA[ms]kA; antisense) [Compound 1785600]

>  <readoutLabel>
APOE RNA (% control) Spinal Cord

>  <unitText>
% control

>  <valueReported>
26

$$$$
>  <substance>
1809688: mixed MOE/cEt gapmer CTTGGTGAATCTTTATTAA, sugar eeeekddddddddddkkee, linkages sosssszzzssssszoss (e[5mC]*eTeT*eG*kG*dT*dG[ms]dA[ms]dA[ms]dT*d[5mC]*dT*dT*dT*dA[ms]kTkT*eA*eA) [compound 1809688]

>  <readoutLabel>
APOE RNA (% control) Spinal Cord

>  <unitText>
% control

>  <valueReported>
37

$$$$
>  <substance>
1693048: 5-10-5 MOE gapmer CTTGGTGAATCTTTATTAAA, linkages ssssszzzzssssszosss (antisense e[5mC]*eT*eT*eG*eG*dT[ms]dG[ms]dA[ms]dA[ms]dT*d[5mC]*dT*dT*dT*dA[ms]eTeT*eA*eA*eA) [compound 1693048]

>  <readoutLabel>
APOE RNA (% control) Spinal Cord

>  <unitText>
% control

>  <valueReported>
87

$$$$

Task: Report APOE RNA (% control) Spinal Cord under test system human APOE RNA for 1778112 (eA*e[5mC]eTeTeGkG*dT*dG[ms]dA[ms]dA*dT*d[5mC]*dT*dT*dT*dA[ms]eTeT*eA*eA; antisense) [Compound 1778112] .
Result: 23

Task: Report APOE RNA (% control) Spinal Cord under test system human APOE RNA for 1693084: 6-10-4 MOE gapmer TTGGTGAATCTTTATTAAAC, linkages ssssszzzszsszzsssss (eT*eT*eG*eG*eT*eG[ms]dA[ms]dA[ms]dT*d[5mC][ms]dT*dT*dT[ms]dA[ms]dT*dT*eA*eA*eA*e[5mC]) [compound 1693084] .
Result: 115

Task: Report APOE RNA (% control) Spinal Cord under test system human APOE RNA for 1778131: modified oligonucleotide complementary to human APOE RNA (eA*e[5mC]eTeTeGkG*dT*dG[ms]dA[ms]dA*dT*d[5mC]*dT*dT*dT*dA[ms]kTkT*eA*eA; antisense) [compound 1778131] .
Result: 24

Task: Report APOE RNA (% control) Spinal Cord under test system human APOE RNA for 1778113 (eA*e[5mC]eTeTkG*kG*dT*dG[ms]dA[ms]dA*dT*d[5mC]*dT*dT*dT*dA[ms]eT*eT*eA*eA; antisense) [Compound 1778113] .
Result: 28

Task: Report APOE RNA (% control) Spinal Cord under test system human APOE RNA for 1785601: modified oligonucleotide complementary to human APOE RNA (k[5mC]*kT*kT*dG[ms]dG[ms]dT[ms]dG*dA[ms]dA[ms]dT*d[5mC]*dT*dT*dT*dA[ms]dT*kT*kA*dA[ms]kA; antisense) [compound 1785601] .
Result: 211

Task: Report APOE RNA (% control) Spinal Cord under test system human APOE RNA for 1693040: 5-10-5 MOE gapmer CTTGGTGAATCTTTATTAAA, linkages sssosszzzssssssosss (antisense e[5mC]*eT*eT*eGeG*dT*dG[ms]dA[ms]dA[ms]dT*d[5mC]*dT*dT*dT*dA*eTeT*eA*eA*eA) [compound 1693040] .
Result: 77
